# experiment-description: photoluminescence quantum yield (fraction); solvent given as SMILES
# experimental-parameters: in CCCO
# reported photoluminescence quantum yield; entries follow
Note: the reply should be a number with no unit written.

Some solved cases for reference:
1. COCCOc1cc(C=O)c(OCCOC)cc1C=O
0.19
2. Cc1ccc(OCc2cc(=O)oc3c2ccc2ccccc23)cc1
0.0312
3. CC1=C(C(C)(C)C)C(C)=[N+]2C1=C(C)c1c(C)c(C(C)(C)C)c(C)n1[B-]2(F)F
0.39
4. Cc1nc2c(c[n+]1C)CN1C(=O)N([C@H]3O[C@@H](CO)[C@H](O)[C@@H]3O)C=CC1=N2
0.11
5. CCN(CC)c1ccc2c(C)cc(=O)oc2c1
0.62
6. CN(C)c1ccc(/C=C/C=C2\CC/C(=C\c3ccc(N(C)C)cc3)C2=O)cc1
0.34
7. CCOC(=O)c1ccc2c(c1)[se]c1c3ccc(C(=O)OCC)cc3[se]c21
0.002
8. CCOC(=O)c1ccc2c(c1)n(C)c1c3ccc(C(=O)OCC)cc3n(C)c21
0.53
9. Cc1cnc(NC(=O)C2=C([O-])c3ccccc3S(=O)(=O)N2C)s1
0.00864
10. N#Cc1coc2ccccc2c1=O
0.001

Sample `Cn1cc(/C=C/C(=O)c2ccccc2)c2ccccc21` ; photoluminescence quantum yield observed: 0.5

Input `CCCCCCn1c2cc(C(=O)OCC)ccc2c2c1c1ccc(C(=O)OCC)cc1n2CCCCCC` . Output photoluminescence quantum yield: 0.6

Summary for this compound, `CN1C(C(=O)Nc2ccccn2)=C(O)c2sccc2S1(=O)=O` : photoluminescence quantum yield is 0.0108

The recorded photoluminescence quantum yield for `CN(C)c1ccc(/C=C2\CC/C(=C\c3ccc(C#N)cc3)C2=O)cc1` is 0.013

// photoluminescence quantum yield value for `Cc1ccccc1/C(C#N)=C/c1ccc(N(C)C)cc1` : 0.008

photoluminescence quantum yield recorded for this compound, `CCOC(=O)c1ccc2c(c1)[nH]c1c3ccc(C(=O)OCC)cc3sc21` , is 0.45

For record `CN(C)c1ccc2c(c1)Cc1ccccc1-2` the listed photoluminescence quantum yield is 0.21
